# Subject of test: full length pdP2X7 (Ailuropoda melanoleuca)
# Sequence (G1M6C4 entry or part of it): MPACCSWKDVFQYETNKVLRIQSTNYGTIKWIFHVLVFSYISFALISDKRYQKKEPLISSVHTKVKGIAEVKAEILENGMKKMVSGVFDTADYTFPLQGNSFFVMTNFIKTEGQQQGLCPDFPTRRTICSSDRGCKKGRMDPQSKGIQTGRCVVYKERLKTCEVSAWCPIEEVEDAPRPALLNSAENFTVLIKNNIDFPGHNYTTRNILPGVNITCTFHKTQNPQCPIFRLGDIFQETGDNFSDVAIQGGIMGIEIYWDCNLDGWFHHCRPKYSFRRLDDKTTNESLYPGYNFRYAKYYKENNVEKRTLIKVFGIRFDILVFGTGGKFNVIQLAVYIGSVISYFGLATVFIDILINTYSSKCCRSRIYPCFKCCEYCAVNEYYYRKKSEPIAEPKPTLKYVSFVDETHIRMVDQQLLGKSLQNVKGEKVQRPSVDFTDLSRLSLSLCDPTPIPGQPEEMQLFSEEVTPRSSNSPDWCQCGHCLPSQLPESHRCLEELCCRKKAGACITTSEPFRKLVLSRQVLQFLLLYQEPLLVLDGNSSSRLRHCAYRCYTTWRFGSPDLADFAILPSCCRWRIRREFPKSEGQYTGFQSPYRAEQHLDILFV
# Test method notes: YO-PRO-1 uptake assay (inhibition of ATP-triggered dye uptake)
# Type: cell-based, giant panda (Ailuropoda melanoleuca)
pIC50: −log10 of the molar value.
Assay endpoint: pIC50

[[record]]
molecule = "Cc1ccc(CN2CCNCC2)cc1NC(=O)CNc1ccc(F)c(F)c1 [GW791343]"
subject_of_test = "full length pdP2X7 (Ailuropoda melanoleuca)"
assay_endpoint = "pIC50"
result_number = 5.05

[[record]]
molecule = "O=C(CC12CC3CC(CC(C3)C1)C2)Nc1cccc2nc(NCCNCCO)ccc12 [AZ10606120]"
subject_of_test = "full length pdP2X7 (Ailuropoda melanoleuca)"
assay_endpoint = "pIC50"
result_number = 6.64

[[record]]
molecule = "O=C(NCC1(N2CCN(c3ccccc3)CC2)CCOCC1)c1cccnc1Sc1ccccc1 [JNJ47965567]"
subject_of_test = "full length pdP2X7 (Ailuropoda melanoleuca)"
assay_endpoint = "pIC50"
result_number = 7.92

